Provenance of the data: patent US20240158446A1

Each entry below lists one item and its recorded Kd value.
biological target: GDP-bound KRAS wild-type protein (Homo sapiens, UniProt P01116); assay: Binding to KRAS by surface plasmon resonance (SPR), Single Cycle Kinetics; conditions: SPR Single Cycle Kinetics, GDP-bound KRAS wild-type protein, 1:1 binding model; read-out: KRAS KD
Sequence (P01116 whole entry): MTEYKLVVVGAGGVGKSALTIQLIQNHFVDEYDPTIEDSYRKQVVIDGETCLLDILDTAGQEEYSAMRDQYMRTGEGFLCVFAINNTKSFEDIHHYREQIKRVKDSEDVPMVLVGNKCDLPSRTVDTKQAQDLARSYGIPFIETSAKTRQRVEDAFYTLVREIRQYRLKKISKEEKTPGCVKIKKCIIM
Where a SMILES comes first, the peptide text is derived from it. Bridges are numbered along the chain shown (N, C = ends). [ ]: non-standard residue; d: D form. The star is where a group is joined. hPhe(3-Cl-4-CF3) = N[C@@H](CCc1ccc(C(F)(F)F)c(Cl)c1)C(=O)O; NPrPhe(4-CF3) = CCCN[C@@H](Cc1ccc(C(F)(F)F)cc1)C(=O)O; NMeGly(cPent) = CN[C@H](C(=O)O)C1CCCC1; Pro(4,4-F2) = O=C(O)[C@@H]1CC(F)(F)CN1; Hyp = O=C(O)[C@@H]1C[C@@H](O)CN1; NMeD = CN[C@@H](CC(=O)O)C(=O)O; NMeL = CN[C@@H](CC(C)C)C(=O)O; Morpholide = C1CN(*)CCO1; NMeA = CN[C@@H](C)C(=O)O; Aze = O=C(O)[C@@H]1CCN1; Ac4c = NC1(C(=O)O)CCC1; Sar = CNCC(=O)O
A number alone suffices; assume nM.

| COMPOUND | TARGET_UNDER_TEST | Kd / nM |
| --- | --- | --- |
| CCCN1C(=O)CN(C)C(=O)CN(C)C(=O)[C@H]([C@@H](C)CC)NC(=O)[C@H](CC(C)C)N(C)C(=O)C[C@@H](C(=O)N2CCOCC2)N(C)C(=O)[C@H](C2CCCC2)N(C)C(=O)C2(CCC2)NC(=O)[C@@H]2CC(F)(F)CN2C(=O)[C@H](CCc2ccc(C(F)(F)F)c(Cl)c2)NC(=O)CN(C)C(=O)[C@@H]1Cc1ccc(C(F)(F)F)cc1 [PP0207] ([NMeL]I[Sar][Sar][NPrPhe(4-CF3)][Sar][hPhe(3-Cl-4-CF3)][Pro(4,4-F2)][Ac4c][NMeGly(cPent)][NMeD]-Morpholide; lactam N-11) | GDP-bound KRAS wild-type protein (Homo sapiens, UniProt P01116) | 0.066 |

As a next step, examine the compound that follows.
Give the reported Kd for CCCN1C(=O)[C@@H]2CCN2C(=O)[C@H](C)N(C)C(=O)[C@H]([C@@H](C)CC)NC(=O)[C@H](CC(C)C)N(C)C(=O)C[C@@H](C(=O)N(C)C)NC(=O)[C@H](C2CCCC2)N(C)C(=O)C2(CCC2)NC(=O)[C@@H]2C[C@@H](OCC)CN2C(=O)[C@H](CCc2ccc(C(F)(F)F)c(Cl)c2)NC(=O)CN(C)C(=O)[C@@H]1Cc1ccc(C(F)(F)F)cc1 [PP0384] ([NMeL]I[NMeA][Aze][NPrPhe(4-CF3)][Sar][hPhe(3-Cl-4-CF3)][Hyp](Et)[Ac4c][NMeGly(cPent)]D-NMe2; lactam N-11) (system: GDP-bound KRAS wild-type protein (Homo sapiens, UniProt P01116)).
0.18

* * *

target: GDP-bound KRAS wild-type protein (Homo sapiens, UniProt P01116); experiment: Binding to KRAS by surface plasmon resonance (SPR), Single Cycle Kinetics; conditions: SPR, Single Cycle Kinetics, GDP-bound KRAS wild-type protein; read-out: KRAS KD
Where a SMILES comes first, the peptide text is derived from it. Bridges are numbered along the chain shown (N, C = ends). [ ]: non-standard residue; d: D form. The star is where a group is joined. hPhe(3-Cl-4-CF3) = N[C@@H](CCc1ccc(C(F)(F)F)c(Cl)c1)C(=O)O; NPrPhe(4-CF3) = CCCN[C@@H](Cc1ccc(C(F)(F)F)cc1)C(=O)O; NMeNva(3-Et) = CCC(CC)[C@H](NC)C(=O)O; NMeD = CN[C@@H](CC(=O)O)C(=O)O; NMeNva = CCC[C@H](NC)C(=O)O; Morpholide = C1CN(*)CCO1; NMeA = CN[C@@H](C)C(=O)O; Aze = O=C(O)[C@@H]1CCN1; Ac4c = NC1(C(=O)O)CCC1; Sar = CNCC(=O)O
Each entry below lists one item and its recorded Kd value.
A number alone suffices; assume nM.

Here is how some molecules turned out for Kd.
| MOLECULE | QUANTITY | READOUT_VALUE |
| --- | --- | --- |
| CCC[C@H]1C(=O)N[C@@H]([C@@H](C)CC)C(=O)N(C)[C@@H](C)C(=O)N2CC[C@H]2C(=O)N(CCC)[C@@H](Cc2ccc(C(F)(F)F)cc2)C(=O)N(C)CC(=O)N[C@@H](CCc2ccc(C(F)(F)F)c(Cl)c2)C(=O)N2CCC[C@H]2C(=O)NC2(CCC2)C(=O)N(C)[C@@H](C(CC)CC)C(=O)N(C)[C@H](C(=O)N2CCOCC2)CC(=O)N1C [PP1959] ([NMeNva]I[NMeA][Aze][NPrPhe(4-CF3)][Sar][hPhe(3-Cl-4-CF3)]P[Ac4c][NMeNva(3-Et)][NMeD]-Morpholide; lactam N-11) | Kd | 0.55 |
| CCO[C@@H]1C[C@H]2C(=O)NC3(CCC3)C(=O)N(C)[C@@H](C3CCCC3)C(=O)N(C)[C@H](C(=O)N3CCOCC3)CC(=O)N(C)[C@@H](Cc3ccccc3C#N)C(=O)N[C@@H]([C@@H](C)CC)C(=O)N(C)CC(=O)N(C)[C@H]3CCCCCN(C3=O)[C@@H](Cc3ccc(C(F)(F)F)cc3)C(=O)N(C)CC(=O)N[C@@H](CCc3cc(F)c(C(F)(F)F)c(F)c3)C(=O)N2C1 | Kd | 1.5 |
| CC[C@H](C)[C@@H]1NC(=O)[C@H](COC)N(C)C(=O)C[C@@H](C(=O)N(CC)CC)N(C)C(=O)[C@H](C2CCCC2)N(C)C(=O)C2(CC(C)(C)C2)NC(=O)[C@@H]2C[C@H](C)CN2C(=O)[C@H](CCc2ccc(C(F)(F)F)c(OC)c2)NC(=O)CN(C)C(=O)[C@H](Cc2ccc(C)cc2)N2CC/C=C\C[C@@H](C2=O)N(C)C(=O)CN(C)C1=O | Kd | 0.29 |
| CC[C@H](C)[C@@H]1NC(=O)[C@H](CC(F)(F)F)N(C)C(=O)C[C@@H](C(=O)N(C)C)N(C)C(=O)[C@H](C2CCCC2)N(C)C(=O)C2(CC(C)(C)C2)NC(=O)[C@@H]2C[C@@H](F)CN2C(=O)[C@H](CCc2cc(F)c(C(F)(F)F)c(F)c2)NC(=O)CN(C)C(=O)[C@H](Cc2ccc(C(F)(F)F)cc2)N2CC/C=C\C[C@@H](C2=O)N(C)C(=O)CN(C)C1=O | Kd | 0.025 |
| CCO[C@@H]1C[C@H]2C(=O)NC3(CC(C)(C)C3)C(=O)N(C)[C@@H](C(CC)CC)C(=O)N(C)[C@H](C(=O)N3CCCC3)CC(=O)N(C)[C@@H](COC)C(=O)N[C@@H]([C@@H](C)CC)C(=O)N(C)CC(=O)N(C)[C@H]3C/C=C\CCN(C3=O)[C@@H](Cc3ccc(C(F)(F)F)cc3)C(=O)N(C)CC(=O)N[C@@H](CCc3cc(F)c(C(F)(F)F)c(F)c3)C(=O)N2C1 | Kd | 0.25 |
| CCO[C@@H]1C[C@H]2C(=O)NC3(CCC3)C(=O)N(C)[C@@H](C3CCCC3)C(=O)N(C)[C@H](C(=O)N(C)C)CC(=O)N(C)[C@@H](CCC(F)F)C(=O)N[C@@H]([C@@H](C)CC)C(=O)N(C)CC(=O)N(C)[C@H]3C/C=C\CCN(C3=O)[C@@H](Cc3ccc(C(F)(F)F)cc3)C(=O)N(C)CC(=O)N[C@@H](CCc3cc(F)c(C(F)(F)F)c(F)c3)C(=O)N2C1 | Kd | 0.049 |
| C#CC[C@H]1C(=O)N[C@@H]([C@@H](C)CC)C(=O)N(C)CC(=O)N(C)[C@H]2C/C=C\CCN(C2=O)[C@@H](Cc2ccc(C(F)(F)F)cc2)C(=O)N(C)CC(=O)N[C@@H](CCc2ccc(C(F)(F)F)c(OC)c2)C(=O)N2C[C@@H](C)C[C@H]2C(=O)NC2(CCC2)C(=O)N(C)[C@@H](C2CCCC2)C(=O)N(C)[C@H](C(=O)N(C)CC)CC(=O)N1C | Kd | 0.075 |
| CCCC[C@H]1C(=O)N[C@@H]([C@@H](C)CC)C(=O)N(C)CC(=O)N(C)[C@H]2C/C=C\CCN(C2=O)[C@@H](Cc2ccc(C(F)(F)F)cc2)C(=O)N(C)CC(=O)N[C@@H](CCc2cc(F)c(C(F)(F)F)c(F)c2)C(=O)N2C[C@@H](C)C[C@H]2C(=O)NC2(CC(C)(C)C2)C(=O)N(C)[C@@H](C2CCCC2)C(=O)N(C)[C@H](C(=O)N(C)C)CC(=O)N1C | Kd | 0.19 |

Returns the measured Kd for the input molecule. Input: `CC[C@H](C)[C@@H]1NC(=O)[C@H](COC)N(C)C(=O)C[C@@H](C(=O)N2CCOCC2)N(C)C(=O)[C@H](C2CCCC2)N(C)C(=O)C2(CCC2)NC(=O)[C@@H]2C[C@H](OC)CN2C(=O)[C@H](CCc2cc(F)c(C(F)(F)F)c(F)c2)NC(=O)CN(C)C(=O)[C@H](Cc2ccc(C(F)(F)F)cc2)N2CCCCC[C@@H](C2=O)N(C)C(=O)CN(C)C1=O`
0.63

Same thing, different molecule: `CC[C@H](C)[C@@H]1NC(=O)[C@H](CC)N(C)C(=O)C[C@@H](C(=O)N(C)C)N(C)C(=O)[C@H](C2CCCC2)N(C)C(=O)C2(CC(C)(C)C2)NC(=O)[C@@H]2C[C@H](C)CN2C(=O)[C@H](CCc2ccc(C(F)(F)F)c(Cl)c2)NC(=O)CN(C)C(=O)[C@H](Cc2ccc(C)cc2)N2CC/C=C\C[C@@H](C2=O)N(C)C(=O)CN(C)C1=O`
0.07

Same thing, different molecule: `CCC[C@H]1C(=O)N[C@@H]([C@@H](C)CC)C(=O)N(C)CC(=O)N(C)[C@H]2C/C=C\CCN(C2=O)[C@@H](Cc2ccc(C(F)(F)F)cc2)C(=O)N(C)CC(=O)N[C@@H](CCc2cc(F)c(C(F)(F)F)c(F)c2)C(=O)N2C[C@H](OCC)C[C@H]2C(=O)NC2(CC(F)(F)C2)C(=O)N(C)[C@@H](C2CCCC2)C(=O)N(C)[C@H](C(=O)N(C)CC)CC(=O)N1C`
0.081
